test system: HL-60(TB) leukemia; test: NCI tumour cell line growth inhibition, 48 h
READOUT: log10 TGI (log10 of the value in µM)
Transform log10 | Measure TGI | Unit µM

Reported log10 TGI, molecule O=C(/C=C/c1ccc(C(F)(F)F)cc1)Nc1ccc(C=C2c3ccccc3C(=O)c3ccccc32)cc1 : ____
0.94

Reported log10 TGI, molecule CCN(Cc1cc(F)ccc1F)c1ccc(CO)c(Cl)c1 : ____
1.54

Reported log10 TGI, molecule COC(=O)c1c(C)cccc1C1CN=NC12Cc1ccc(C)c(C)c1C2=O (stereo unspecified) : ____
1.46

Reported log10 TGI, molecule C=C1C(=O)O[C@H]2[C@H]1CC/C(COC(=O)NCc1ccc(OC)cc1)=C\CC[C@@]1(C)O[C@@H]21 : ____
0.32

Reported log10 TGI, molecule COc1ccc(C(=O)c2cc3c(N)c(C(=O)Nc4ccccc4)sc3nc2C)cc1 : ____
1.42

Reported log10 TGI, molecule C1=C/COCc2cc(ccc2OCCN2CCCC2)Nc2nccc(n2)-c2ccc(o2)COC/1 : ____
0.80

Reported log10 TGI, molecule Cc1ccc(Sc2ccccc2[N+](=O)[O-])cc1 : ____
1.77

Reported log10 TGI, molecule COC(=O)C(CCC(=O)CCl)N1C(=O)c2ccccc2C1=O (stereo unspecified) : ____
0.76

Further cases:
Reported log10 TGI, molecule Cc1ccc(Oc2ccccc2N)cc1 : ____
1.65

Reported log10 TGI, molecule Cc1cccc2c1c1ccc3c(c1n2C)C(=O)C=CC3=O : ____
0.47

Reported log10 TGI, molecule CN1CCN(CCOc2ccc(-c3cnc4c(-c5cccc(F)c5)cnn4c3)cc2)CC1 : ____
0.64
